System: Acinetobacter baumannii
Assay: Antibacterial activity against carbapenem-resistant Acinetobacter baumannii CRAB-1 clinical isolate incubated for 16 to 24 hrs by broth microdilution assay
Format: functional
Settings: time 16-24 hrs
measured-metric: MIC (µg/mL)
// units = µg/mL; emit number, no label

Q: Which MIC is reported with Acinetobacter baumannii for this entry: CN[C@H](CC(C)C)C(=O)N[C@H]1C(=O)N[C@@H](CC(N)=O)C(=O)N[C@H]2C(=O)N[C@H]3C(=O)N[C@H](C(=O)N[C@H](C(=O)NCCC[S+](C)CC(O)COc4ccc(Br)cc4)c4cc(O)cc(O)c4-c4cc3ccc4O)[C@H](O)c3ccc(c(Cl)c3)Oc3cc2cc(c3O[C@@H]2O[C@H](CO)[C@@H](O)[C@H](O)[C@H]2O[C@H]2C[C@](C)(N)[C@H](O)[C@H](C)O2)Oc2ccc(cc2Cl)[C@H]1O.O=C([O-])C(F)(F)F (stereo partly drawn) ?
Result: 64

Q: Which MIC is reported with Acinetobacter baumannii for this entry: CN[C@H](CC(C)C)C(=O)N[C@H]1C(=O)N[C@@H](CC(N)=O)C(=O)N[C@H]2C(=O)N[C@H]3C(=O)N[C@H](C(=O)N[C@H](C(=O)NCCC[S+](C)CC(O)COc4ccc(Cl)cc4)c4cc(O)cc(O)c4-c4cc3ccc4O)[C@H](O)c3ccc(c(Cl)c3)Oc3cc2cc(c3O[C@@H]2O[C@H](CO)[C@@H](O)[C@H](O)[C@H]2O[C@H]2C[C@](C)(N)[C@H](O)[C@H](C)O2)Oc2ccc(cc2Cl)[C@H]1O.O=C([O-])C(F)(F)F (stereo partly drawn) ?
Result: 128

Q: Which MIC is reported with Acinetobacter baumannii for this entry: CN[C@H](CC(C)C)C(=O)N[C@H]1C(=O)N[C@@H](CC(N)=O)C(=O)N[C@H]2C(=O)N[C@H]3C(=O)N[C@H](C(=O)N[C@H](C(=O)O)c4cc(O)c(CNCCCSCC(O)COc5ccc(-c6ccc(C(F)(F)F)cc6)cc5)c(O)c4-c4cc3ccc4O)[C@H](O)c3ccc(c(Cl)c3)Oc3cc2cc(c3O[C@@H]2O[C@H](CO)[C@@H](O)[C@H](O)[C@H]2O[C@H]2C[C@](C)(N)[C@H](O)[C@H](C)O2)Oc2ccc(cc2Cl)[C@H]1O (stereo partly drawn) ?
Result: 128

---

System: Acinetobacter baumannii
Experiment: Antibacterial activity against carbapenem-resistant Acinetobacter baumannii CRAB-1 clinical isolate incubated for 16 to 24 hrs by broth microdilution assay
Format: functional
Details: time 16-24 hrs
measured-metric: MIC (µg/mL)
// units = µg/mL; emit number, no label

Q: # input molecule: CN[C@H](CC(C)C)C(=O)N[C@H]1C(=O)N[C@@H](CC(N)=O)C(=O)N[C@H]2C(=O)N[C@H]3C(=O)N[C@H](C(=O)N[C@H](C(=O)NCCC[S+](C)CC(O)COc4ccc(-c5ccccc5)cc4)c4cc(O)cc(O)c4-c4cc3ccc4O)[C@H](O)c3ccc(c(Cl)c3)Oc3cc2cc(c3O[C@@H]2O[C@H](CO)[C@@H](O)[C@H](O)[C@H]2O[C@H]2C[C@](C)(N)[C@H](O)[C@H](C)O2)Oc2ccc(cc2Cl)[C@H]1O.O=C([O-])C(F)(F)F (some centres not stated) ; wanted: its MIC
Result: 128

---

Assay: Drug concentration in CD-1 mouse at 5 mg/kg, iv measured after 8 hrs
Assay type: ADME, organism-based
Settings: in vivo, read-out: Drug uptake
measured-metric: concentration at 8 h

Q: # input compound: CN[C@H](CC(C)C)C(=O)N[C@H]1C(=O)N[C@@H](CC(N)=O)C(=O)N[C@H]2C(=O)N[C@H]3C(=O)N[C@H](C(=O)N[C@H](C(=O)O)c4cc(O)c(CNCCC[S+](C)CC(O)COc5ccc(-c6ccc(C(F)(F)F)cc6)cc5)c(O)c4-c4cc3ccc4O)[C@H](O)c3ccc(c(Cl)c3)Oc3cc2cc(c3O[C@@H]2O[C@H](CO)[C@@H](O)[C@H](O)[C@H]2O[C@H]2C[C@](C)(N)[C@H](O)[C@H](C)O2)Oc2ccc(cc2Cl)[C@H]1O.O=C([O-])C(F)(F)F (stereo partly specified) ; wanted: its concentration at 8 h
Result: ~700 ng/mL

---

Field: MIC. Provide a value for each of the compounds that follow.
Tested on: Staphylococcus aureus
Assay: Antibacterial activity against vancomycin-intermediate Staphylococcus aureus Mu50 incubated for 16 to 24 hrs by broth microdilution assay
Assay type: functional
Conditions: time 16-24 hrs
// units = µg/mL; emit number, no label

Q: # input compound: CN[C@H](CC(C)C)C(=O)N[C@H]1C(=O)N[C@@H](CC(N)=O)C(=O)N[C@H]2C(=O)N[C@H]3C(=O)N[C@H](C(=O)N[C@H](C(=O)NCCC[S+](C)CC(O)COc4cccc(Cl)c4)c4cc(O)cc(O)c4-c4cc3ccc4O)[C@H](O)c3ccc(c(Cl)c3)Oc3cc2cc(c3O[C@@H]2O[C@H](CO)[C@@H](O)[C@H](O)[C@H]2O[C@H]2C[C@](C)(N)[C@H](O)[C@H](C)O2)Oc2ccc(cc2Cl)[C@H]1O.O=C([O-])C(F)(F)F (stereo not given in full) ; wanted: its MIC
Result: 1

Q: # input compound: CC(C)C[C@H](C(=O)N[C@H]1C(=O)N[C@@H](CC(N)=O)C(=O)N[C@H]2C(=O)N[C@H]3C(=O)N[C@H](C(=O)N[C@H](C(=O)O)c4cc(O)cc(O)c4-c4cc3ccc4O)[C@H](O)c3ccc(c(Cl)c3)Oc3cc2cc(c3O[C@@H]2O[C@H](CO)[C@@H](O)[C@H](O)[C@H]2O[C@H]2C[C@](C)(N)[C@H](O)[C@H](C)O2)Oc2ccc(cc2Cl)[C@H]1O)N(C)CCC[S+](C)C[C@H](O)COc1ccccc1.O=C([O-])C(F)(F)F (stereo not given in full) ; wanted: its MIC
Result: 8

Q: # input compound: CCCCCCCCC(O)C[S+](C)CCCNCc1c(O)cc2c(c1O)-c1cc(ccc1O)[C@H]1NC(=O)[C@@H]3NC(=O)[C@H](CC(N)=O)NC(=O)[C@H](NC(=O)[C@@H](CC(C)C)NC)[C@H](O)c4ccc(c(Cl)c4)Oc4cc3cc(c4O[C@@H]3O[C@H](CO)[C@@H](O)[C@H](O)[C@H]3O[C@H]3C[C@](C)(N)[C@H](O)[C@H](C)O3)Oc3ccc(cc3Cl)[C@@H](O)[C@H](NC1=O)C(=O)N[C@@H]2C(=O)O.O=C([O-])C(F)(F)F (stereo not given in full) ; wanted: its MIC
Result: 0.25

Q: # input compound: CN[C@H](CC(C)C)C(=O)N[C@H]1C(=O)N[C@@H](CC(N)=O)C(=O)N[C@H]2C(=O)N[C@H]3C(=O)N[C@H](C(=O)N[C@H](C(=O)NCCC[S+](C)CC(O)COc4ccc(Br)cc4)c4cc(O)cc(O)c4-c4cc3ccc4O)[C@H](O)c3ccc(c(Cl)c3)Oc3cc2cc(c3O[C@@H]2O[C@H](CO)[C@@H](O)[C@H](O)[C@H]2O[C@H]2C[C@](C)(N)[C@H](O)[C@H](C)O2)Oc2ccc(cc2Cl)[C@H]1O.O=C([O-])C(F)(F)F (stereo not given in full) ; wanted: its MIC
Result: 1

Q: # input compound: `CN[C@H](CC(C)C)C(=O)N[C@H]1C(=O)N[C@@H](CC(N)=O)C(=O)N[C@H]2C(=O)N[C@H]3C(=O)N[C@H](C(=O)N[C@H](C(=O)O)c4cc(O)cc(O)c4-c4cc3ccc4O)[C@H](O)c3ccc(c(Cl)c3)Oc3cc2cc(c3O[C@@H]2O[C@H](CO)[C@@H](O)[C@H](O)[C@H]2O[C@H]2C[C@](C)(N)[C@H](O)[C@H](C)O2)Oc2ccc(cc2Cl)[C@H]1O` ; wanted: its MIC
Result: 8

---

Tested on: Staphylococcus aureus
Test: Antibacterial activity against vancomycin-intermediate Staphylococcus aureus Mu50 incubated for 16 to 24 hrs by broth microdilution assay
Format: functional
Settings: time 16-24 hrs
Field: MIC. Provide a value for each of the molecules that follow.
// units = µg/mL; emit number, no label

Q: # input molecule: CN[C@H](CC(C)C)C(=O)N[C@H]1C(=O)N[C@@H](CC(N)=O)C(=O)N[C@H]2C(=O)N[C@H]3C(=O)N[C@H](C(=O)N[C@H](C(=O)NCCC[S+](C)CC(O)COc4ccc(C(C)(C)C)cc4)c4cc(O)cc(O)c4-c4cc3ccc4O)[C@H](O)c3ccc(c(Cl)c3)Oc3cc2cc(c3O[C@@H]2O[C@H](CO)[C@@H](O)[C@H](O)[C@H]2O[C@H]2C[C@](C)(N)[C@H](O)[C@H](C)O2)Oc2ccc(cc2Cl)[C@H]1O.O=C([O-])C(F)(F)F (stereo not given in full) ; wanted: its MIC
Result: 1

Q: # input molecule: CC(C)C[C@H](C(=O)N[C@H]1C(=O)N[C@@H](CC(N)=O)C(=O)N[C@H]2C(=O)N[C@H]3C(=O)N[C@H](C(=O)N[C@H](C(=O)O)c4cc(O)cc(O)c4-c4cc3ccc4O)[C@H](O)c3ccc(c(Cl)c3)Oc3cc2cc(c3O[C@@H]2O[C@H](CO)[C@@H](O)[C@H](O)[C@H]2O[C@H]2C[C@](C)(N)[C@H](O)[C@H](C)O2)Oc2ccc(cc2Cl)[C@H]1O)N(C)CCC[S+](C)CC(O)COc1ccccc1.O=C([O-])C(F)(F)F (stereo not given in full) ; wanted: its MIC
Result: 8

Q: # input molecule: CN[C@H](CC(C)C)C(=O)N[C@H]1C(=O)N[C@@H](CC(N)=O)C(=O)N[C@H]2C(=O)N[C@H]3C(=O)N[C@H](C(=O)N[C@H](C(=O)NCCC[S+](C)CC(O)COc4ccc(OC)cc4)c4cc(O)cc(O)c4-c4cc3ccc4O)[C@H](O)c3ccc(c(Cl)c3)Oc3cc2cc(c3O[C@@H]2O[C@H](CO)[C@@H](O)[C@H](O)[C@H]2O[C@H]2C[C@](C)(N)[C@H](O)[C@H](C)O2)Oc2ccc(cc2Cl)[C@H]1O.O=C([O-])C(F)(F)F (stereo not given in full) ; wanted: its MIC
Result: 2

Q: # input molecule: CN[C@H](CC(C)C)C(=O)N[C@H]1C(=O)N[C@@H](CC(N)=O)C(=O)N[C@H]2C(=O)N[C@H]3C(=O)N[C@H](C(=O)N[C@H](C(=O)NCCC[S+](C)CC(O)COc4ccc(-c5ccc(Cl)cc5)cc4)c4cc(O)cc(O)c4-c4cc3ccc4O)[C@H](O)c3ccc(c(Cl)c3)Oc3cc2cc(c3O[C@@H]2O[C@H](CO)[C@@H](O)[C@H](O)[C@H]2O[C@H]2C[C@](C)(N)[C@H](O)[C@H](C)O2)Oc2ccc(cc2Cl)[C@H]1O.O=C([O-])C(F)(F)F (stereo not given in full) ; wanted: its MIC
Result: 0.25
